Provenance of the data: paper PMC8373216

Please provide measured log10 MIC for the entries that follow.
test system: MRSA ATCC BAA 1556 (USA300); experiment: In-house broth microdilution MIC screening; type: cell-based, Staphylococcus aureus; conditions: Staphylococcus aureus; broth microdilution; read-out: MIC Value, MRSA ATCC BAA 1556
All values: log10 MIC [µg/mL].

{"Molecule": "CCCCCCCCNC(=O)CNC1(C)CC(OC2C(Oc3c4cc5cc3Oc3ccc(cc3Cl)C(O)C3NC(=O)C(NC(=O)C5NC(=O)C(CC(N)=O)NC(=O)C(NC(=O)C(CC(C)C)NC)C(O)c5ccc(c(Cl)c5)O4)c4ccc(O)c(c4)-c4c(O)cc(O)cc4C(C(=O)O)NC3=O)OC(CO)C(O)C2O)OC(C)C1O (stereo not shown)", "log10 MIC": -0.60}
{"Molecule": "CCCCCCCCCCCCCCNC(=O)CNC1(C)CC(OC2C(Oc3c4cc5cc3Oc3ccc(cc3Cl)C(O)C3NC(=O)C(NC(=O)C5NC(=O)C(CC(N)=O)NC(=O)C(NC(=O)C(CC(C)C)NC)C(O)c5ccc(c(Cl)c5)O4)c4ccc(O)c(c4)-c4c(O)cc(O)cc4C(C(=O)O)NC3=O)OC(CO)C(O)C2O)OC(C)C1O (stereo not shown)", "log10 MIC": -0.60}
{"Molecule": "CCCCCCCCCCCCCCCC(=O)OCCNC1(C)CC(OC2C(Oc3c4cc5cc3Oc3ccc(cc3Cl)C(O)C3NC(=O)C(NC(=O)C5NC(=O)C(CC(N)=O)NC(=O)C(NC(=O)C(CC(C)C)NC)C(O)c5ccc(c(Cl)c5)O4)c4ccc(O)c(c4)-c4c(O)cc(O)cc4C(C(=O)O)NC3=O)OC(CO)C(O)C2O)OC(C)C1O (stereo not shown)", "log10 MIC": 0.00}
{"Molecule": "CCCCCCCCCCCCCC(=O)NCCNC1(C)CC(OC2C(Oc3c4cc5cc3Oc3ccc(cc3Cl)C(O)C3NC(=O)C(NC(=O)C5NC(=O)C(CC(N)=O)NC(=O)C(NC(=O)C(CC(C)C)NC)C(O)c5ccc(c(Cl)c5)O4)c4ccc(O)c(c4)-c4c(O)cc(O)cc4C(C(=O)O)NC3=O)OC(CO)C(O)C2O)OC(C)C1O (stereo not shown)", "log10 MIC": -1.51}
{"Molecule": "CCCCCCCCCCNCCN[C@@]1(C)C[C@H](O[C@H]2[C@H](Oc3c4cc5cc3Oc3ccc(cc3Cl)[C@@H](O)[C@@H](NC(=O)[C@@H](CC(C)C)NC)C(=O)N[C@@H](CC(N)=O)C(=O)N[C@H]5C(=O)N[C@H]3C(=O)N[C@H](C(=O)N[C@H](C(=O)O)c5cc(O)cc(O)c5-c5cc3ccc5O)[C@H](O)c3ccc(c(Cl)c3)O4)O[C@H](CO)[C@@H](O)[C@@H]2O)O[C@@H](C)[C@H]1O", "log10 MIC": -1.80}

For each of the items listed, what is its log10 MIC?
1. CCCCCCCCCCCCCCCCOC(=O)CNC1(C)CC(OC2C(Oc3c4cc5cc3Oc3ccc(cc3Cl)C(O)C3NC(=O)C(NC(=O)C5NC(=O)C(CC(N)=O)NC(=O)C(NC(=O)C(CC(C)C)NC)C(O)c5ccc(c(Cl)c5)O4)c4ccc(O)c(c4)-c4c(O)cc(O)cc4C(C(=O)O)NC3=O)OC(CO)C(O)C2O)OC(C)C1O (stereo not shown)
2. CCCCCCCCCCCC(=O)NCCNC1(C)CC(OC2C(Oc3c4cc5cc3Oc3ccc(cc3Cl)C(O)C3NC(=O)C(NC(=O)C5NC(=O)C(CC(N)=O)NC(=O)C(NC(=O)C(CC(C)C)NC)C(O)c5ccc(c(Cl)c5)O4)c4ccc(O)c(c4)-c4c(O)cc(O)cc4C(C(=O)O)NC3=O)OC(CO)C(O)C2O)OC(C)C1O (stereo not shown)
3. CCCCCCCCCCCCOC(=O)CNC1(C)CC(OC2C(Oc3c4cc5cc3Oc3ccc(cc3Cl)C(O)C3NC(=O)C(NC(=O)C5NC(=O)C(CC(N)=O)NC(=O)C(NC(=O)C(CC(C)C)NC)C(O)c5ccc(c(Cl)c5)O4)c4ccc(O)c(c4)-c4c(O)cc(O)cc4C(C(=O)O)NC3=O)OC(CO)C(O)C2O)OC(C)C1O (stereo not shown)

Reply |
1: 0.00; 2: -1.80; 3: 0.30
